- Procedure Summary: Human HepG2 cell viability assay in 384 well format
- Format: toxicity, cell-based
- Design: dose 125 nL, time 70.5 hour; concentration not given beside the values
- Measurement Setup: HepG2 cells, read-out: Inhibition
Reported Property: cytotoxicity at 70.5 h (%)

>>> print(df.to_string())
                                    compound  numeric_value
 0  Cc1nc(C)n(CC2CN(Cc3cc(C#N)ccc3F)CCO2)n1 (stereo not given)          -1.96
 1  CC(C)(C)c1nnc(CN2CCN(CC(O)c3ccccc3)CC2)o1 (stereo not given)          -11.1
 2  Cc1ccc(N2CC[C@H]3O[C@@H](C(=O)N4CCCO4)CC[C@H]32)nn1         0.0406
 3  Cc1cc(C(=O)NCC(O)CN2CCCC2=O)ccc1F (stereo not given)          -4.58
 4  COc1cc(NC(=O)C2CC(=O)N(c3cccc(Br)c3)C2)ncn1 (stereo not given)           91.5
 5      CCOc1cc(C(=O)n2cc(C)cn2)cc(OCC)c1OCC           1.34
 6  O=S(=O)(c1ccc(N2CCCCC2)c2nonc12)N1CCCCC1          -11.2
 7  Cc1cccc(N2CCN(C(=O)CCCC(=O)N(C)C)C(C)C2)n1 (stereo not given)          -18.7
 8        O=C(c1ccccc1F)N1CCN(CCCn2cncn2)CC1          -5.46
 9  Cc1cccc(CN2CC[C@H]3OCC[C@@]3(C(=O)N3CCCO3)C2)n1          -2.84
10  CC(=O)N1CCC(N2CCOC[C@H]2c2nc(-c3ccncc3)c[nH]2)CC1         -0.136
11          Nc1nnc(CCCn2nnc(-c3ccccc3F)n2)s1          -15.5
12  CN1CCCN(C(=O)c2nc3c(o2)CN(S(C)(=O)=O)C3)CC1          -14.5
13  CN1C[C@@H](O)[C@]2(CCN(C(=O)OCc3ccccc3)C2)S1(=O)=O          -10.5
14  CCC(NC(=O)NCC(=O)Nc1ccc(F)cc1)c1ccncc1 (stereo not given)           2.31

---

- Procedure Summary: Human HepG2 cell viability assay in 384 well format
- Type: toxicity, cell-based
- Design: dose 125 nL, time 70.5 hour; concentration not given beside the values
- Measurement Setup: HepG2 cells, read-out: Inhibition
Reported Property: cytotoxicity at 70.5 h (%)

                                    molecule  unit_of_measure  numeric_value
 0  CS(=O)(=O)N1CC2(CCN(CC3CC3)C2)Cc2ccccc21 (centres undefined)                %           -6.8
 1  CC(C)CN1CC2(CCN(C(=O)c3nc4ncccn4n3)CC2)CC1=O                %          -17.1
 2  O=C(Cc1ccccc1O)NC1CCCN(c2ccccc2F)C1=O (centres undefined)                %          -18.3
 3       CCCN(CCC)C(=O)c1cc(CN2CCC(O)CC2)on1                %          -6.98
 4        CC(=O)N1CCCN(C(=O)NCCNc2ccccn2)CC1                %           2.71
 5  Cc1nccn1-c1cc(CNC(=O)CC2CCCO2)ccn1 (centres undefined)                %           16.3
 6  CCc1noc(C(C)N2CCN(C(=O)CN3CCOCC3)CC2)n1 (centres undefined)                %          0.684
 7     Cc1ccc(NC(=O)c2cccc(OCc3nnnn3C)c2)nc1                %          -9.18
 8             COc1ccccc1OC1CCN(c2ccncc2)CC1                %           12.9
 9  CC(C)n1cnnc1CN(C)C(=O)C1CCCN(CC(N)=O)C1 (centres undefined)                %          -10.5
10  COc1c(CNCc2ccc(C(=O)N3CCCC3)cc2)c(C)nn1C                %           10.8
11         O=c1c2ccccc2nc2n1CCN(Cc1cccs1)CC2                %          -16.1
12  O=S(=O)(C1CC1)N1CCO[C@@H]2CN(Cc3cccs3)C[C@@H]2C1                %          -5.47
13   CCOc1cccc2c1OCC(=O)N(c1ccc3c(c1)OCO3)C2                %           14.7
